system: MRSA clinical isolate OU6; test: Clinical laboratory susceptibility (MicroScan), MRSA isolate 6; format: cell-based, S. aureus; details: MicroScan PC33 gram positive panel
property-measured: MIC

Look up and state reported MIC for Cc1onc(-c2ccccc2)c1C(=O)N[C@@H]1C(=O)N2[C@@H]1SC(C)(C)[C@@H]2C(=O)O
> 2 µg/mL

Input CN[C@H](CC(C)C)C(=O)N[C@H]1C(=O)N[C@@H](CC(N)=O)C(=O)N[C@H]2C(=O)N[C@H]3C(=O)N[C@H](C(=O)N[C@H](C(=O)O)c4cc(O)cc(O)c4-c4cc3ccc4O)[C@H](O)c3ccc(c(Cl)c3)Oc3cc2cc(c3O[C@@H]2O[C@H](CO)[C@@H](O)[C@H](O)[C@H]2O[C@H]2C[C@](C)(N)[C@H](O)[C@H](C)O2)Oc2ccc(cc2Cl)[C@H]1O , output reported MIC.
2 µg/mL

Give recorded MIC. CN(C)[C@@H]1C(O)=C(C(N)=O)C(=O)[C@@]2(O)C(O)=C3C(=O)c4c(O)cccc4[C@@](C)(O)[C@H]3C[C@@H]12
≤ 4 µg/mL

Give MIC for the following compound: CCCCCCCCCC(=O)N[C@@H](Cc1c[nH]c2ccccc12)C(=O)N[C@H](CC(N)=O)C(=O)N[C@@H](CC(=O)O)C(=O)N[C@@H]1C(=O)NCC(=O)N[C@@H](CCCN)C(=O)N[C@@H](CC(=O)O)C(=O)N[C@H](C)C(=O)N[C@@H](CC(=O)O)C(=O)NCC(=O)N[C@H](CO)C(=O)N[C@@H]([C@H](C)CC(=O)O)C(=O)N[C@@H](CC(=O)c2ccccc2N)C(=O)O[C@@H]1C
≤ 0.5 µg/mL

Give MIC for CCC[C@@H]1C[C@@H](C(=O)N[C@@H]([C@H]2O[C@H](SC)[C@H](O)[C@@H](O)[C@H]2O)[C@H](C)Cl)N(C)C1
> 4 µg/mL

Provide measured MIC value, entry: CC[C@H]1OC(=O)[C@H](C)[C@@H](O[C@H]2C[C@@](C)(OC)[C@@H](O)[C@H](C)O2)[C@H](C)[C@@H](O[C@@H]2O[C@H](C)C[C@H](N(C)C)[C@H]2O)[C@](C)(O)C[C@@H](C)C(=O)[C@H](C)[C@@H](O)[C@]1(C)O
> 4 µg/mL
